This collection of values is drawn from paper PMC9482650.

- Assayed System: FRMPD2_3, Q68DX3
- Sequence (Q68DX3 1073-1166): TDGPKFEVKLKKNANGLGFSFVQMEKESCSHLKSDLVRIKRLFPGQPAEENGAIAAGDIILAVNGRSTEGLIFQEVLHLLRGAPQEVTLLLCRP
- Protocol Notes: holdup assay
- Parameters: key: below the threshold = too weak to quantify, mostly under pKd 3.1 to 4
- Condition Set: plain residues with an end cap or a label only (N-terminal biotin on a linker: ado-ado)

{"columns": ["Binder", "pKd"],
 "data": [
  ["IGHEDLETAV [DGKI, O75912]", 3.56],
  ["KEKASTETEC [TRPM1, Q7Z4N2]", "below the threshold"],
  ["GVHSNDHSVV [LPAR1, Q92633]", "below the threshold"],
  ["PKSNSSKEYV [CLDN7, O95471]", "below the threshold"]
]}
